# measurement protocol: qHTS RealTime-Glo MT Cell Viability Assay in HEK293 cells - 8 hour (AID 1224887); also: top concentration of the series differs between compounds; nearly all actives have a fitted effect of over 50% in size
# condition details: RealTime-Glo luminescence; series mostly up to 76.8 µM
Records with an inconclusive call do not appear. The source made the active and inactive calls. Calls follow the shape of the dose curve; as a rule, active = well fitted cell-killing curve with a large enough effect in the repeat runs; inconclusive = weak or mixed curves, or effect the other way; inactive = flat fitted curve, though single readings scatter.

compound: COc1ccc(COC(C)=O)cc1
activity change, negative = cytotoxicity: inactive
--
compound: CC(=O)N[C@@H](CS)C(=O)O
activity change, negative = cytotoxicity: inactive
--
compound: Nc1nc(=S)c2[nH]cnc2[nH]1
activity change, negative = cytotoxicity: inactive
--
compound: O=C1Nc2ccccc2C1(c1ccc(O)cc1)c1ccc(O)cc1
activity change, negative = cytotoxicity: inactive
--
compound: CCCNC(C)C(=O)Nc1ccccc1C (configuration not stated)
activity change, negative = cytotoxicity: inactive
--
compound: COC(c1ccccc1)(c1ccccc1)[C@H](Oc1nc(C)cc(C)n1)C(=O)O
activity change, negative = cytotoxicity: inactive
--
compound: CCOc1ccccc1C(N)=O
activity change, negative = cytotoxicity: inactive
